- method.notes: Biodistribution of labeled radioligands in male Sprague-Dawley rats
- Format: in vivo
- assay.setup: 60 min post-injection; mean ± SD, n = 3
Please provide measured % ID/g Thalamus for the entries that follow.

The value of % ID/g Thalamus measured for the compound CN(C)Cc1ccccc1Sc1ccc(C[18F])cc1N [[^18F]AFM] turned out to be 0.67 ± 0.15 % ID/g

Query CN([11CH3])Cc1ccccc1Sc1ccc(CF)cc1N [[^11C]AFM] yields % ID/g Thalamus of 1.29 ± 0.22 % ID/g

Per the record, CN(C)Cc1ccccc1Sc1ccc(CC[18F])cc1N [[^18F]AFE] has % ID/g Thalamus of 0.27 ± 0.04 % ID/g

// sample CN(C)Cc1ccccc1Sc1ccc(CCF)cc1N [[^11C]AFE] , its % ID/g Thalamus was 0.22 ± 0.01 % ID/g

Input Cc1ccc(Sc2ccccc2CN(C)[11CH3])c(N)c1 [[^11C]MADAM] . Output % ID/g Thalamus: 1.14 ± 0.18 % ID/g

Sample CN([11CH3])Cc1ccccc1Sc1ccc(F)cc1N [[^11C]AFA] ; % ID/g Thalamus observed: 0.39 ± 0.04 % ID/g

The compound listed as CN(C)Cc1ccccc1Sc1ccc([18F])cc1N [[^18F]AFA] shows % ID/g Thalamus equal to 0.34 ± 0.05 % ID/g

* * *

- Tested on: SERT
- method.notes: Baboon PET imaging: brain uptake, kinetic analysis and SERT parameters
- Type: in vivo
- assay.setup: one-tissue compartment model; baboons, mean ± SD of four experiments
value.type: K2 Cerebellum (min⁻¹)
Provide the reading as a plain figure in min⁻¹.

Item: CN(C)Cc1ccccc1Sc1ccc(I)cc1N [[^11C]ADAM] | K2 Cerebellum: 0.043

K2 Cerebellum recorded for this compound, CN([11CH3])Cc1ccccc1Sc1ccc(CF)cc1N [[^11C]AFM] , is 0.051

According to the records, this compound CN(C)Cc1ccccc1Sc1ccc(Br)cc1N [[^11C]DAPA] displays K2 Cerebellum of 0.034

Sure, the documented K2 Cerebellum for CN(C)Cc1ccccc1Sc1ccc(C#N)cc1N [[^11C]DASB] is 0.078

# K2 Cerebellum of [11CH3]Sc1ccc([C@H]2CN3CCC[C@H]3c3ccccc32)cc1 [[^11C]McN 5652] = 0.038

* * *

- method.notes: Biodistribution of labeled radioligands in male Sprague-Dawley rats
- Format: in vivo
- assay.setup: 10 min post-injection; mean ± SD, n = 3
Give % ID/g Hypothal. for every item shown.
Give the quantity in % ID/g, number only.

Recorded % ID/g Hypothal. (molecule CN(C)Cc1ccccc1Sc1ccc(C[18F])cc1N [[^18F]AFM] ): 0.70

What the record says about CN(C)Cc1ccccc1Sc1ccc(CC[18F])cc1N [[^18F]AFE] : % ID/g Hypothal. is 0.51

Record CN(C)Cc1ccccc1Sc1ccc([18F])cc1N [[^18F]AFA] , field % ID/g Hypothal.: 0.73

Reported % ID/g Hypothal. for Cc1ccc(Sc2ccccc2CN(C)[11CH3])c(N)c1 [[^11C]MADAM] was 1.93

Entry CN([11CH3])Cc1ccccc1Sc1ccc(CF)cc1N [[^11C]AFM] — recorded % ID/g Hypothal. = 0.75

Looking up CN(C)Cc1ccccc1Sc1ccc(CCF)cc1N [[^11C]AFE] , I found its % ID/g Hypothal. recorded as 0.61

Form: molecule = CN([11CH3])Cc1ccccc1Sc1ccc(F)cc1N [[^11C]AFA] ; % ID/g Hypothal. = 0.55
